Origin of the recorded values: patent US20070282007A1

biological target: D1 (Homo sapiens, UniProt P21728); test: In vitro radioligand binding assay, D1
Sequence (P21728 whole entry): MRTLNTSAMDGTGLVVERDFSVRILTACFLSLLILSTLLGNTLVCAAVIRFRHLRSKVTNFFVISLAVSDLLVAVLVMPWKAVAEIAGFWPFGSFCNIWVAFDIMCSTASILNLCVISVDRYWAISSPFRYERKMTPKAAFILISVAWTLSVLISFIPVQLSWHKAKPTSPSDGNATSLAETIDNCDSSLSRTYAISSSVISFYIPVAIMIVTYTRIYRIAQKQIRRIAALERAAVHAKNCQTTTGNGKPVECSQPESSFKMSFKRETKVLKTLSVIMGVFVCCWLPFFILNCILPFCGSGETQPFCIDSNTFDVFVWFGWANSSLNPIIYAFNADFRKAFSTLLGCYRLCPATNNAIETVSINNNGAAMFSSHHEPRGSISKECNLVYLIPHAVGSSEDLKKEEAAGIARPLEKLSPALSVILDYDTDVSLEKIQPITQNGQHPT

Compound: CN[C@H]1CC[C@@H](c2ccc(Cl)c(Cl)c2)c2ccccc21 [Sertraline, reference compound]
Tested on: D1 (Homo sapiens, UniProt P21728)
Unit symbol: µM
Ki: 1.6

Compound: N[C@@H]1CC[C@@H](c2ccc(Cl)c(Cl)c2)c2ccccc21
Tested on: D1 (Homo sapiens, UniProt P21728)
Unit symbol: µM
Ki: 6.8

====

biological target: M5 (Homo sapiens, UniProt P08912); test: In vitro radioligand binding assay, M5; settings: read-out: Ki, M5
Sequence (P08912 whole entry): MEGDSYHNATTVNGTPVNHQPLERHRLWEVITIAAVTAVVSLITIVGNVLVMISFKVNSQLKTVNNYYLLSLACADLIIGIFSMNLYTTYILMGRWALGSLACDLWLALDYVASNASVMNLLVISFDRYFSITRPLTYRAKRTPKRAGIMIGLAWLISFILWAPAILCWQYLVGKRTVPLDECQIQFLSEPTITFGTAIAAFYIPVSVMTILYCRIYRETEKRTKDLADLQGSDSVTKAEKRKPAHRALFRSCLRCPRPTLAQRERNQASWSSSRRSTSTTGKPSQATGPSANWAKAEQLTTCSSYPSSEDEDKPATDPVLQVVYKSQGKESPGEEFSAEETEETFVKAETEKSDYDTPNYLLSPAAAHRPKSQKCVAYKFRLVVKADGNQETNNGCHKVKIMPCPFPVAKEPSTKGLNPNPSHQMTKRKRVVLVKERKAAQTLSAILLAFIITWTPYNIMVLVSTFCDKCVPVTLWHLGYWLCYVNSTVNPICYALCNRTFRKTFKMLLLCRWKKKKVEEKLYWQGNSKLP
Measured Ki of individual entries

Compound: CN[C@H]1CC[C@@H](c2ccc(Cl)c(Cl)c2)c2ccccc21 [Sertraline, reference compound]
Ki: 2 µM
//
Compound: CN(C)CCCC1(c2ccc(F)cc2)OCc2cc(C#N)ccc21 (stereo not shown)
Ki: 29 µM
//
Compound: N[C@@H]1CC[C@@H](c2ccc(Cl)c(Cl)c2)c2ccccc21
Ki: 8.4 µM
//
Compound: CNCCCN1c2ccccc2CCc2ccccc21
Ki: 0.47 µM

====

target: M5 (Homo sapiens); experiment: In vitro radioligand binding assay, M5
pKi: −log10 of the molar value.

Molecule: COc1ccc(C(CN(C)C)C2(O)CCCCC2)cc1 (stereo not shown)
Tested on: M5 (Homo sapiens)
pKi: < 4.00

====

Measured Ki of individual entries
target: 5-HT1B (Homo sapiens, UniProt P28222)
Sequence (P28222 whole entry, species assumed): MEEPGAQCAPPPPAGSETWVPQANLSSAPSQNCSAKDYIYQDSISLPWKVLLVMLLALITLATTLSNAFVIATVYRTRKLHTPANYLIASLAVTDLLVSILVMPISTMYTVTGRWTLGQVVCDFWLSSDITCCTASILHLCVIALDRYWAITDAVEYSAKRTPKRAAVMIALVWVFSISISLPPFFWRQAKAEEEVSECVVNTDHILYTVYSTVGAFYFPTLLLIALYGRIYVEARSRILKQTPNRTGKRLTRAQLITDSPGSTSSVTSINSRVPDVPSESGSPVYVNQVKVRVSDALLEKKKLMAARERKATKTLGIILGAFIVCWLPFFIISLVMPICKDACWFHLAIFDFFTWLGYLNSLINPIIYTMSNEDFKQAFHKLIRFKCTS
Measured attribute: Ki (nM)

Compound: CN[C@H]1CC[C@@H](c2ccc(Cl)c(Cl)c2)c2ccccc21 [Sertraline, reference compound]
Tested on: 5-HT1B (Homo sapiens, UniProt P28222)
Measured attribute: Ki
Measurement: 8500
--
Compound: CNCCCN1c2ccccc2CCc2ccccc21
Tested on: 5-HT1B (Homo sapiens, UniProt P28222)
Measured attribute: Ki
Measurement: 2700
--
Compound: N[C@@H]1CC[C@@H](c2ccc(Cl)c(Cl)c2)c2ccccc21
Tested on: 5-HT1B (Homo sapiens, UniProt P28222)
Measured attribute: Ki
Measurement: 1000

====

Measured IC50 of individual entries
biological target: Dopamine (DA) uptake (Rattus norvegicus, UniProt P23977); test: biochemical
Sequence (P23977 whole entry): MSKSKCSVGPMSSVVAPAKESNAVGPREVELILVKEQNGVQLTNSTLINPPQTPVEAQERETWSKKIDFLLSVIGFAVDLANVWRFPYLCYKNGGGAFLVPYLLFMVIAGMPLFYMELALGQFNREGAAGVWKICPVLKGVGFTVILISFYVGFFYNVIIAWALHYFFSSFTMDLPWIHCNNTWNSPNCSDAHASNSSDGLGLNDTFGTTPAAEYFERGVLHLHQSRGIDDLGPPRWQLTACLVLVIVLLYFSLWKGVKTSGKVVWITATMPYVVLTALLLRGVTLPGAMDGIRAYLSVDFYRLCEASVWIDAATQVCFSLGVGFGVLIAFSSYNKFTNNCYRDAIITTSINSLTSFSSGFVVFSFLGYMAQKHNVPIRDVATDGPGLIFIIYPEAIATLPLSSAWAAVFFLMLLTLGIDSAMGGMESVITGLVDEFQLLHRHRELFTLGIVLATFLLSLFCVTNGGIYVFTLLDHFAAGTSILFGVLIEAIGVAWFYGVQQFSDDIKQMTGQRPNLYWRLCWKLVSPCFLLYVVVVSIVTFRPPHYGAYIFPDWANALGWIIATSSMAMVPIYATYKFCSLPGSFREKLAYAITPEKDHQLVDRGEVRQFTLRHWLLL
Measured attribute: IC50 (nM)

Compound: N[C@@H]1CC[C@@H](c2ccc(Cl)c(Cl)c2)c2ccccc21 [Compound P]
Tested on: Dopamine (DA) uptake (Rattus norvegicus, UniProt P23977)
Measurement: 6.4
//
Compound: CC(NC(C)(C)C)C(=O)c1cccc(Cl)c1 (stereo not shown) [Bupropion, reference compound]
Tested on: Dopamine (DA) uptake (Rattus norvegicus, UniProt P23977)
Measurement: 294
//
Compound: N[C@@H]1CC[C@@H](c2ccc(Cl)c(Cl)c2)c2ccccc21 (racemic) [1:1 mixture of Compounds P & Q]
Tested on: Dopamine (DA) uptake (Rattus norvegicus, UniProt P23977)
Measurement: 7.1
//
Compound: N[C@H]1CC[C@H](c2ccc(Cl)c(Cl)c2)c2ccccc21
Tested on: Dopamine (DA) uptake (Rattus norvegicus, UniProt P23977)
Measurement: 19

====

target: M3 receptor (Cavia porcellus, UniProt H0W1Z3); construct: from tissue; host or cells: isolated guinea pig ileum; assay: Carbachol-induced contraction of the isolated Guinea pig ileum; details: reference antagonist; read-out: IC50 for inhibition of carbachol-induced contraction of the Guinea Pig ileum
Sequence (H0W1Z3 1-590): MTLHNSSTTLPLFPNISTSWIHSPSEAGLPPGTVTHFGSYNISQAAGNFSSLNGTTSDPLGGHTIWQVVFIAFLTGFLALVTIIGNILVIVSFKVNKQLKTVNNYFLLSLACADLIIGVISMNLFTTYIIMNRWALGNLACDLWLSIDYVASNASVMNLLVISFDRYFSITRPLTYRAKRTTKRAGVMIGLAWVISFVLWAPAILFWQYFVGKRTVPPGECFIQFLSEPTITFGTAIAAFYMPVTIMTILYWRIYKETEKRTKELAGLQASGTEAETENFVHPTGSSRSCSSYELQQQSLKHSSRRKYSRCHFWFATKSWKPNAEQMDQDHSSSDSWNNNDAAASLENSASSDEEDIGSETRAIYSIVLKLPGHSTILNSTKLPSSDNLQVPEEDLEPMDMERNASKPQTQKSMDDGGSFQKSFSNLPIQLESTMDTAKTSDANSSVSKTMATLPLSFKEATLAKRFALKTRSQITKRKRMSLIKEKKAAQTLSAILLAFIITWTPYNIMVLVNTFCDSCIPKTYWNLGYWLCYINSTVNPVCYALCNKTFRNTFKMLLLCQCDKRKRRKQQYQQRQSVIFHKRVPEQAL
Measured attribute: IC50 (nM)

Molecule: C[N+]1(C)CCC(OC(=O)C(c2ccccc2)c2ccccc2)CC1.[I-] [Compound 4-DAMP, 4-DAMP, reference compound]
Measured attribute: IC50
Measurement: 33
